# target_desc: Tyrosine-protein kinase SYK (Homo sapiens)
# measurement_notes: Inhibition of recombinant human N-terminal GST-tagged full length SYK expressed in baculovirus expression system at 500 nM using Tyr 02 as substrate incubated for 1 hr in presence of ATP at its Km concentration by Z'-LYTE assay relative to control
outcome_measure: inhibition (%)

| entry_smiles | measure_unit | inhibition |
| --- | --- | --- |
| OCC[C@@H](Nc1ncnc2[nH]c(-c3ccccc3)cc12)c1ccccc1 | % | 5 |

a: CN(C)CCNCc1ccc(-c2cc3c(N[C@H](CO)c4ccccc4)ncnc3[nH]2)cc1F
b: COc1ccccc1-c1cc2c(N[C@H](CO)c3ccccc3)ncnc2[nH]1
// which entry has the larger inhibition value, a or b ? Use the label to indicate which entry you chose.
a

a: CCOc1ccccc1-c1cc2c(N[C@H](CO)c3ccccc3)ncnc2[nH]1
b: OC[C@@H](Nc1ncnc2[nH]c(-c3ccccc3)cc12)c1ccccc1
// which entry has the larger inhibition value, a or b ? Use the label to indicate which entry you chose.
b
(b: 29%, a: 11%)

---

# target_desc: Protein kinase C theta type (Homo sapiens) (UniProt Q04759)
# Sequence (Q04759 whole entry, looked up): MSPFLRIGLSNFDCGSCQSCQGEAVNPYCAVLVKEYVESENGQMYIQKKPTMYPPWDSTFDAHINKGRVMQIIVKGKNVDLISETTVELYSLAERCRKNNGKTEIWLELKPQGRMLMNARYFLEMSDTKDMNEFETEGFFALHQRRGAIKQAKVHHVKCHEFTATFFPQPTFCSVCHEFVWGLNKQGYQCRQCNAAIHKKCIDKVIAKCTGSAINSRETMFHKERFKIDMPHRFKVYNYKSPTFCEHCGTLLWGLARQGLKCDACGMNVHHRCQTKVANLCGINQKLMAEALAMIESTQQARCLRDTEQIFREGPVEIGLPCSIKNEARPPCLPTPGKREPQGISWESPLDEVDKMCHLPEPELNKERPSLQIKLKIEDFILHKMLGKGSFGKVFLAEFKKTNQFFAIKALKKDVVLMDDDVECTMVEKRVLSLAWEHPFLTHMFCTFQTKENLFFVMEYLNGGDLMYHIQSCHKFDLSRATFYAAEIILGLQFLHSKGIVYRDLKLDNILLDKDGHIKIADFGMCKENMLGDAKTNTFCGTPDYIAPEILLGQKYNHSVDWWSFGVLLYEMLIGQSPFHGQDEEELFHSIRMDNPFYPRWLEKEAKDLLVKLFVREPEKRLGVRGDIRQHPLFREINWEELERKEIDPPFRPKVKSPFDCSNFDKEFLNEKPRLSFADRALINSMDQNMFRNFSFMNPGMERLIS
# measurement_notes: Inhibition of recombinant human His-tagged full length PRKCQ expressed in baculovirus expression system at 500 nM using Ser/Thr 07 as substrate incubated for 1 hr in presence of ATP at its Km concentration by Z'-LYTE assay relative to control
outcome_measure: inhibition (%)

| entry_smiles | experimental_result |
| --- | --- |
| COc1ccccc1-c1cc2c(N[C@H](CO)c3ccccc3)ncnc2[nH]1 | 5 |

I: CCOc1ccccc1-c1cc2c(N[C@H](CO)c3ccccc3)ncnc2[nH]1
II: CN(C)CCNCc1ccc(-c2cc3c(N[C@H](CO)c4ccccc4)ncnc3[nH]2)cc1F
III: C#Cc1cccc(Nc2ncnc3cc(OCCOC)c(OCCOC)cc23)c1
IV: OCC[C@@H](Nc1ncnc2[nH]c(-c3ccccc3)cc12)c1ccccc1
V: OC[C@@H](Nc1ncnc2[nH]c(-c3ccccc3)cc12)c1ccccc1
Output the entries ranked by inhibition from maximum down to minimum. Provide the ranking by listing each label in its place in the requested order.
V, IV, I, II, III

---

# target_desc: Serine/threonine-protein kinase B-raf (Homo sapiens) (UniProt P15056)
# Sequence (P15056 whole entry): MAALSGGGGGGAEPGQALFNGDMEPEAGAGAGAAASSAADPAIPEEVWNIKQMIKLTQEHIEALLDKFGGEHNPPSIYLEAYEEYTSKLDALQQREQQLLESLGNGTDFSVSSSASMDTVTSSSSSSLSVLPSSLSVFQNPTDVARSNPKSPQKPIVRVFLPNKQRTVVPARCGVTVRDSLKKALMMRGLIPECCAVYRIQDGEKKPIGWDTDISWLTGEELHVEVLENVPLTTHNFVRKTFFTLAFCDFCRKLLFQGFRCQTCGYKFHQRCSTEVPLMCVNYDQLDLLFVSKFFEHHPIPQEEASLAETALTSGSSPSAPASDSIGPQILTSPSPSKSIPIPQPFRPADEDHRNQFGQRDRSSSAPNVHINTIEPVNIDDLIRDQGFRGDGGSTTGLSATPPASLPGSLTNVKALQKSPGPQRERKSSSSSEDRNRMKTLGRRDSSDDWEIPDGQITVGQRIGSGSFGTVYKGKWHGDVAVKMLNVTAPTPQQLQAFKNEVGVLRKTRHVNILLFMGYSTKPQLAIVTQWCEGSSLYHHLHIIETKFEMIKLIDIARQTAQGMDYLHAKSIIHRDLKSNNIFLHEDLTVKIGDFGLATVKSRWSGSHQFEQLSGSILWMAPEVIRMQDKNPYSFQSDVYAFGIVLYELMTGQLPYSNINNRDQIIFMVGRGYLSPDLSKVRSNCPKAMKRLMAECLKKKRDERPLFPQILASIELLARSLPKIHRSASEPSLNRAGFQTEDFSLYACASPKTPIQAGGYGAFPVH
# measurement_notes: Inhibition of recombinant human GST-tagged full length BRAF expressed in baculovirus expression system at 500 nM using Ser/Thr 03 peptide as substrate incubated for 1 hr in presence of 100 uM ATP by Z'-LYTE assay relative to control
outcome_measure: inhibition (%)

Study these solved cases before continuing.
| compound | inhibition, % |
| --- | --- |
| C#Cc1cccc(Nc2ncnc3cc(OCCOC)c(OCCOC)cc23)c1 [ERLOTINIB] | 3 |
| OCC[C@@H](Nc1ncnc2[nH]c(-c3ccccc3)cc12)c1ccccc1 | -3 |

I: OC[C@@H](Nc1ncnc2[nH]c(-c3ccccc3)cc12)c1ccccc1
II: CN(C)CCNCc1ccc(-c2cc3c(N[C@H](CO)c4ccccc4)ncnc3[nH]2)cc1F
III: COc1ccccc1-c1cc2c(N[C@H](CO)c3ccccc3)ncnc2[nH]1
IV: CCOc1ccccc1-c1cc2c(N[C@H](CO)c3ccccc3)ncnc2[nH]1
Output the entries ranked by inhibition from maximum down to minimum. Provide the ranking by listing each label in its place in the requested order.
IV, III, I, II
(IV: 7%, III: 4%, I: -2%, II: -4%)

---

# target_desc: Tyrosine-protein kinase Fgr (Homo sapiens)
# measurement_notes: Inhibition of recombinant full length human C-terminal His-tagged FGR expressed in baculovirus expression system at 500 nM using Tyr 02 peptide as substrate incubated for 1 hr in presence of ATP at its Km concentration by Z'-LYTE assay relative to control
outcome_measure: inhibition (%)

| entry_smiles | inhibition / % |
| --- | --- |
| CN(C)CCNCc1ccc(-c2cc3c(N[C@H](CO)c4ccccc4)ncnc3[nH]2)cc1F | 83 |
| CCOc1ccccc1-c1cc2c(N[C@H](CO)c3ccccc3)ncnc2[nH]1 | 73 |
| COc1ccccc1-c1cc2c(N[C@H](CO)c3ccccc3)ncnc2[nH]1 | 74 |
| OCC[C@@H](Nc1ncnc2[nH]c(-c3ccccc3)cc12)c1ccccc1 | 67 |
| OC[C@@H](Nc1ncnc2[nH]c(-c3ccccc3)cc12)c1ccccc1 | 73 |

---

# target_desc: Serine/threonine-protein kinase PLK1 (Homo sapiens)
# measurement_notes: Inhibition of recombinant full length human His-tagged PLK1 expressed in baculovirus expression system at 500 nM using Ser/Thr 16 as substrate incubated for 1 hr in presence of ATP at its Km concentration by Z'-LYTE assay relative to control
outcome_measure: inhibition (%)

| entry_smiles | target_desc | inhibition (%) |
| --- | --- | --- |
| CN(C)CCNCc1ccc(-c2cc3c(N[C@H](CO)c4ccccc4)ncnc3[nH]2)cc1F | Serine/threonine-protein kinase PLK1 (Homo sapiens) | -3 |

P: CCOc1ccccc1-c1cc2c(N[C@H](CO)c3ccccc3)ncnc2[nH]1
Q: OCC[C@@H](Nc1ncnc2[nH]c(-c3ccccc3)cc12)c1ccccc1
R: C#Cc1cccc(Nc2ncnc3cc(OCCOC)c(OCCOC)cc23)c1
S: OC[C@@H](Nc1ncnc2[nH]c(-c3ccccc3)cc12)c1ccccc1
Output the entries ranked by inhibition from maximum down to minimum. Provide the ranking by listing each label in its place in the requested order.
S, P, Q, R

---

# target_desc: Mitogen-activated protein kinase 1 (Homo sapiens)
# measurement_notes: Inhibition of recombinant full length GST-tagged human MAPK1 expressed in Escherichia coli at 500 nM using Ser/Thr 03 as substrate incubated for 1 hr in presence of 100 uM ATP by Z'-LYTE assay relative to control
outcome_measure: inhibition (%)

| compound | target_desc | measure_unit | inhibition |
| --- | --- | --- | --- |
| COc1ccccc1-c1cc2c(N[C@H](CO)c3ccccc3)ncnc2[nH]1 | Mitogen-activated protein kinase 1 (Homo sapiens) | % | 1 |
| OCC[C@@H](Nc1ncnc2[nH]c(-c3ccccc3)cc12)c1ccccc1 | Mitogen-activated protein kinase 1 (Homo sapiens) | % | 5 |
| CCOc1ccccc1-c1cc2c(N[C@H](CO)c3ccccc3)ncnc2[nH]1 | Mitogen-activated protein kinase 1 (Homo sapiens) | % | 1 |

P: C#Cc1cccc(Nc2ncnc3cc(OCCOC)c(OCCOC)cc23)c1 [ERLOTINIB]
Q: OC[C@@H](Nc1ncnc2[nH]c(-c3ccccc3)cc12)c1ccccc1
Could you tell me which of P and Q has the lower inhibition reading? Use the label to indicate which entry you chose.
Q

---

# target_desc: Glycogen synthase kinase-3 beta (Homo sapiens) (UniProt P49841)
# Sequence (P49841 whole entry, looked up): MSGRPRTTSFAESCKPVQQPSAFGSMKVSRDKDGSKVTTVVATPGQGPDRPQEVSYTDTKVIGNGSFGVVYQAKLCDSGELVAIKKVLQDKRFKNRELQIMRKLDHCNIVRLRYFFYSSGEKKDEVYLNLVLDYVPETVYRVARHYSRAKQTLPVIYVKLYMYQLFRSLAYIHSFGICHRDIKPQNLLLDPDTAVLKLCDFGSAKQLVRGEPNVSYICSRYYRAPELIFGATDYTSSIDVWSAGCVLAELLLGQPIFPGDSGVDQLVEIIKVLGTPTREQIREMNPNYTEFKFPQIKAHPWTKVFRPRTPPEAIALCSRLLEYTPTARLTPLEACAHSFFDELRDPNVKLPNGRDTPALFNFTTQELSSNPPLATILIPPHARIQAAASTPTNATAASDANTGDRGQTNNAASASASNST
# measurement_notes: Inhibition of recombinant full-length human His-tagged GSK3beta expressed in baculovirus expression system at 500 nM using Ser/Thr 09 as substrate incubated for 1 hr in presence of ATP at its Km concentration by Z'-LYTE assay relative to control
outcome_measure: inhibition (%)

A: OCC[C@@H](Nc1ncnc2[nH]c(-c3ccccc3)cc12)c1ccccc1
B: C#Cc1cccc(Nc2ncnc3cc(OCCOC)c(OCCOC)cc23)c1 [ERLOTINIB]
// which entry has the larger inhibition value, A or B ? Use the label to indicate which entry you chose.
A

I: OC[C@@H](Nc1ncnc2[nH]c(-c3ccccc3)cc12)c1ccccc1
II: CCOc1ccccc1-c1cc2c(N[C@H](CO)c3ccccc3)ncnc2[nH]1
Could you tell me which of I and II has the lower inhibition reading? Use the label to indicate which entry you chose.
I
(I: 8%, II: 13%)

---

# target_desc: Tyrosine-protein kinase Fer (Homo sapiens)
# measurement_notes: Inhibition of recombinant human GST-tagged FER (541 to 822 residues) expressed in baculovirus expression system at 500 nM using Tyr 05 peptide as substrate incubated for 1 hr in presence of ATP at its Km concentration by Z'-LYTE assay relative to control
outcome_measure: inhibition (%)

| entry_smiles | target_desc | measure_unit | inhibition |
| --- | --- | --- | --- |
| C#Cc1cccc(Nc2ncnc3cc(OCCOC)c(OCCOC)cc23)c1 | Tyrosine-protein kinase Fer (Homo sapiens) | % | -1 |
| CCOc1ccccc1-c1cc2c(N[C@H](CO)c3ccccc3)ncnc2[nH]1 | Tyrosine-protein kinase Fer (Homo sapiens) | % | 12 |
| CN(C)CCNCc1ccc(-c2cc3c(N[C@H](CO)c4ccccc4)ncnc3[nH]2)cc1F | Tyrosine-protein kinase Fer (Homo sapiens) | % | 7 |
| OC[C@@H](Nc1ncnc2[nH]c(-c3ccccc3)cc12)c1ccccc1 | Tyrosine-protein kinase Fer (Homo sapiens) | % | 6 |

A: COc1ccccc1-c1cc2c(N[C@H](CO)c3ccccc3)ncnc2[nH]1
B: OCC[C@@H](Nc1ncnc2[nH]c(-c3ccccc3)cc12)c1ccccc1
Could you tell me which of A and B has the lower inhibition reading? Use the label to indicate which entry you chose.
A
(A: 7%, B: 10%)

---

# target_desc: Receptor tyrosine-protein kinase erbB-2 (Homo sapiens)
# measurement_notes: Inhibition of recombinant human His-tagged ERBB2 (676 to 1255 residues) expressed in baculovirus expression system at 500 nM using Tyr 06 peptide as substrate incubated for 1 hr in presence of ATP at its Km concentration by Z'-LYTE assay relative to control
outcome_measure: inhibition (%)

| entry_smiles | measure_unit | inhibition |
| --- | --- | --- |
| CCOc1ccccc1-c1cc2c(N[C@H](CO)c3ccccc3)ncnc2[nH]1 | % | 35 |
| OC[C@@H](Nc1ncnc2[nH]c(-c3ccccc3)cc12)c1ccccc1 | % | 53 |
| CN(C)CCNCc1ccc(-c2cc3c(N[C@H](CO)c4ccccc4)ncnc3[nH]2)cc1F | % | 58 |
| COc1ccccc1-c1cc2c(N[C@H](CO)c3ccccc3)ncnc2[nH]1 | % | 53 |

I: C#Cc1cccc(Nc2ncnc3cc(OCCOC)c(OCCOC)cc23)c1
II: OCC[C@@H](Nc1ncnc2[nH]c(-c3ccccc3)cc12)c1ccccc1
Could you tell me which of I and II has the lower inhibition reading? Use the label to indicate which entry you chose.
II
